# system: UniProt Q92731
# Sequence (Q92731 whole entry): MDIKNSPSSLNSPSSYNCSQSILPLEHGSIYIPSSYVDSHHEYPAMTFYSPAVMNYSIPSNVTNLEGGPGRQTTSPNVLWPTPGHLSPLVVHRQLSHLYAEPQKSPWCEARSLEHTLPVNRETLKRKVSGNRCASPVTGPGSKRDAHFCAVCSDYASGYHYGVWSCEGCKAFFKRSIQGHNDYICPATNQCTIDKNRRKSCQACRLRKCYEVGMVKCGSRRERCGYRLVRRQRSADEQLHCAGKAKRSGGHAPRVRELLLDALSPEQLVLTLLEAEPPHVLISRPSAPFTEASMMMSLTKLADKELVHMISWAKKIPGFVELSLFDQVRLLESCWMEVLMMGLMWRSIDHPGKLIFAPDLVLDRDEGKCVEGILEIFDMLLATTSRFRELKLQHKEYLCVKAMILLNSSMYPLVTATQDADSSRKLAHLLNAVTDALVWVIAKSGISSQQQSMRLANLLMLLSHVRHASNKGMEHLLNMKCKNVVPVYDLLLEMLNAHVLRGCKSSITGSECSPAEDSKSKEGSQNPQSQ
pKi: −log10 of the molar value.
Kindly return 1 (yes) if reported pKi is no lower than 8; return 0 (no) if it is lower.

| query.smiles | answer.label |
| --- | --- |
| CCCCCc1cc2cc(O)ccc2c(Oc2ccc(/C=C/C(=O)O)cc2)c1-c1ccccc1 | 1 (yes) |
| CCCCc1cc2ccccc2c(Oc2ccc(/C=C/C(=O)O)cc2)c1-c1ccccc1 | 0 (no) |
| CC(C)Cc1cc2cc(O)ccc2c(Oc2ccc(/C=C/C(=O)O)cc2)c1-c1ccccc1 | 0 (no) |

Is pKi at least 8? Consider CCCCc1cc2ccccc2c(Oc2ccc(/C=C/C(=O)O)cc2)c1-c1ccc(O)cc1
0 (no)

Is pKi at least 8? Consider CCCCc1cc2ccccc2c(Oc2ccc(/C=C/C(=O)O)cc2)c1-c1ccc(OC)cc1
0 (no)

---

# system: UniProt:Q92731
Quick list: Ki per entry.
State just the number; it will be interpreted in nM.

| query.smiles | unit.tag | Ki |
| --- | --- | --- |
| CCCCc1cc2ccccc2c(Oc2ccc(/C=C/C(=O)O)cc2)c1-c1ccc(F)cc1 | nM | 110 |
| CCCCc1cc2cc(O)ccc2c(Oc2ccc(/C=C/C(=O)O)cc2)c1-c1ccccc1 | nM | 4 |
| O=C(O)/C=C/c1ccc(Oc2c(-c3ccccc3)c(C3CC3)cc3cc(O)ccc23)cc1 | nM | 16 |

Attention now shifts to the item below.
Param readout= Ki; system= UniProt:Q92731; entry= COCc1cc2ccccc2c(Oc2ccc(/C=C/C(=O)O)cc2)c1-c1ccccc1 ; returns value.
501

---

This section lists Ki readings for Estrogen receptor (Homo sapiens, UniProt P03372).
State just the number; it will be interpreted in nM.

A selection of reference data follows.
| query.smiles | readout.type | unit.tag | observed.result |
| --- | --- | --- | --- |
| CCCCc1cc2ccccc2c(Oc2ccc(/C=C/C(=O)O)cc2)c1-c1ccc(O)cc1 | Ki | nM | 52 |
| CCCCc1cc2ccccc2c(Oc2ccc(/C=C/C(=O)O)cc2)c1-c1ccc(OC)cc1 | Ki | nM | 158 |
| CCCCCc1cc2cc(O)ccc2c(Oc2ccc(/C=C/C(=O)O)cc2)c1-c1ccccc1 | Ki | nM | 2 |

Any idea what Ki was measured for CC(C)Cc1cc2cc(O)ccc2c(Oc2ccc(/C=C/C(=O)O)cc2)c1-c1ccccc1 ?
28

Any idea what Ki was measured for O=C(O)/C=C/c1ccc(Oc2c(-c3ccccc3)c(C3CC3)cc3cc(O)ccc23)cc1 ?
60

Source: ChEMBL document CHEMBL1144155
